- protocol.summary: logP determination through HPLC (EEC directive 79/831 Annex V. A8, gradient method, acetonitrile/0.1% aqueous phosphoric acid)
- Format: physicochemical
- condition.label: Table 1, compounds of formula (I); HPLC gradient method, acetonitrile/0.1% aqueous phosphoric acid
attribute.measured: logP

Some solved entries appear below for comparison.
logP recorded for this compound, CCC(C)Nc1c(-c2ccsc2)c(Cl)nc2nc(C3CC3)nn12 (centres unmarked) , is 3.41

Note to self: logP recorded for `FC(F)(F)CNc1c(-c2ccsc2)c(Cl)nc2nc(C3CC3)nn12` was 2.87

Notebook: CC(Nc1c(-c2nc([N+](=O)[O-])ccc2Cl)c(Cl)nc2nc(C3CC3)nn12)C(C)(C)C (centres unmarked) , logP read as 3.86

Consider `C=C(C)CN(C)c1c(-c2ccsc2)c(Cl)nc2nc(C3CC3)nn12` . Its measured logP is 3.81

The compound listed as CC(Nc1c(-c2cc(Cl)sc2Cl)c(Cl)nc2nc(C3CC3)nn12)C(F)(F)F (centres unmarked) has a reported logP of 4.32

Consider `CC(C)Nc1c(-c2cc(Cl)sc2Cl)c(Cl)nc2nc(C3CC3)nn12` . Its measured logP is 4.18

Measured logP, CC(Nc1c(-c2ccccn2)c(Cl)nc2nc(C3CC3)nn12)C(F)(F)F (centres unmarked) [Example 24] : 2.60

Form: compound = CC(Nc1c(-c2ccncc2Cl)c(Cl)nc2nc(C3CC3)nn12)C(F)(F)F (centres unmarked) [Example 44] ; logP = 2.78

[a] CC(C)(C)CNc1c(-c2ccsc2)c(Cl)nc2nc(C3CC3)nn12
[b] CCCN(CC1CC1)c1c(-c2cc(Cl)sc2Cl)c(Cl)nc2nc(C3CC3)nn12
[c] FC(F)(F)CNc1c(-c2ccncc2Cl)c(Cl)nc2nc(C3CC3)nn12
(Q) hey, can you rank those compounds up there by logP? biggest number first please Please list the labels according to the requested order.
(A) b, a, c
(b: 5.71, a: 3.85, c: 2.48)

[a] Clc1nc2nc(C3CC3)nn2c(N2CCCC2)c1-c1ccsc1
[b] CC(C)CN(C)c1c(-c2cc(Cl)sc2Cl)c(Cl)nc2nc(C3CC3)nn12
[c] Cc1nc2nc(Cl)c(-c3ncncc3F)c(NC(C)C(F)(F)F)n2n1 (centres unmarked)
(Q) List these items ordered by logP, big to small. Answer format: the labels, in the requested order.
(A) b, a, c
(b: 5.25, a: 3.18, c: 2.03)

[P] CCCN(CC1CC1)c1c(-c2ccsc2)c(Cl)nc2nc(C3CC3)nn12
[Q] FC1(F)CCN(c2c(-c3ncncc3Cl)c(Cl)nc3nc(C4CC4)nn23)CC1
(Q) Compare reported logP values for P and Q . Which is lower? # respond with the chosen item's label
(A) Q
(Q: 2.75, P: 4.32)

----------
- protocol.summary: logP determination through HPLC (EEC directive 79/831 Annex V. A8, gradient method, acetonitrile/0.1% aqueous phosphoric acid)
- Type: physicochemical
- condition.label: Table 2, precursors of formula (II)
attribute.measured: logP

[P] Clc1nc2nc(C3CC3)nn2c(Cl)c1-c1ccccn1
[Q] O=[N+]([O-])c1cccc(-c2c(Cl)nc3nc(C4CC4)nn3c2Cl)n1
(Q) For the pair P and Q , which member has the lower logP number? Field: selected label. Fill in the label of the entry you choose.
(A) P
(P: 1.88, Q: 2.91)
